# SYSTEM_NAME: T1, human histidine-rich glycoprotein (HRG), purified from human plasma (human, UniProt P04196 19-525)
# T1 construct: also called human purified HRG; human purified HRG protein
# T1 sequence: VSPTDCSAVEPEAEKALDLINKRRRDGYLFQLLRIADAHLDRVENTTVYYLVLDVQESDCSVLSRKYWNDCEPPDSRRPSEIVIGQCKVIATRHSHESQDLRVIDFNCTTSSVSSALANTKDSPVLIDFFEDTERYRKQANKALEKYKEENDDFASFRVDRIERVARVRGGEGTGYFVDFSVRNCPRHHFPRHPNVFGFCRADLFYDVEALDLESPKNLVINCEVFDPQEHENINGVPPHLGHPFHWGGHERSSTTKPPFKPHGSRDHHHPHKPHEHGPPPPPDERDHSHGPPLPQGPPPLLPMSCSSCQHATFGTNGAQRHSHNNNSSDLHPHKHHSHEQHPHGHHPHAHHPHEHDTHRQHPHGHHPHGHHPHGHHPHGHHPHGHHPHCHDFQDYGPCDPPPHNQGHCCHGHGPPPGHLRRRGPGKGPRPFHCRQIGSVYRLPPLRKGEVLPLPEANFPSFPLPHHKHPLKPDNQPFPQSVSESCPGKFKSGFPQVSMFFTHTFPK
# PROTOCOL_SUMMARY: sandwich ELISA, HRG captured by solid phase 14-6F
MEASUREMENT_KIND: absorbance at 450 nm (OD450)

## Task Query (binder): anti-HRG monoclonal antibody 67-8A-5F (antibody, V domains shown, Mouse hybridoma monoclonal) VH: EVQLQESGPGLVKPSQSLSLTCTVTGYSITSDYAWNWIRQFPGNKLEWMGYISYSGSTSYNPSLKSRISITRDTSKNQFFLQLNSVTTEDTATYYCASASYRYAWFAYWGQGTLVTVSA VL: DIQMTQTTSSLSASLGDRVTISCRASQDISNYLNWYQQKPDGTVKLLIYYTSRLLSGVPSRFSGSGSGTDYSLTISNLEQEDIATYFCQQGNTLPTFGGGTKLEIK ; field requested: absorbance at 450 nm (OD450)
## Result 2 to 3 od

FYI, the data here is from patent US20250258178A1.
